src = patent US12729181B2

Each entry below carries its reported responders at 15 µM.
System: tre^tc318 mutant embryos
Assay: Compound rescue screen: restoration of persistent heartbeat in tremblor embryos
Type: in vivo, Zebrafish
Details: Danio rerio, 48 h, read-out: Rescue at 15 uM (%)
Numbers only; they are read as %.

Known responders at 15 µM results, listed for orientation:
Compound: CCOC(=O)C1=CCN(S(=O)(=O)c2cccc(F)c2)C1c1ccc(Br)cc1 (stereo not drawn) [FS134]
responders at 15 µM (%): 60
--
Compound: CCOC(=O)C1=CCN(S(=O)(=O)c2ccc(Cl)cc2)C1c1ccc(Cl)c(Cl)c1 (stereo not drawn) [FS087]
responders at 15 µM (%): 0
--
Compound: CCOC(=O)C1=CCN(S(=O)(=O)c2ccccc2C)C1c1ccc(Cl)c(Cl)c1 (stereo not drawn) [FS019]
responders at 15 µM (%): 40

Given the compound CCOC(=O)C1=CCN(S(C)(=O)=O)C1c1ccc(C)cc1 (stereo not drawn) [FS140] , what is its reported responders at 15 µM?
0

Given the compound CCOC(=O)C1=CCN(S(=O)(=O)c2ccc(C)cc2)C1c1cccs1 (stereo not drawn) [FS147] , what is its reported responders at 15 µM?
60

Given the compound CCOC(=O)C1=CCN(S(=O)(=O)c2cccc(Br)c2)C1c1ccc(Cl)cc1 (stereo not drawn) [FS136] , what is its reported responders at 15 µM?
29

Given the compound CCOC(=O)C1=CCN(S(=O)(=O)c2cccc(Cl)c2)C1c1ccccc1 (stereo not drawn) [FS132] , what is its reported responders at 15 µM?
88

Given the compound CCOC(=O)C1=CCN(S(=O)(=O)c2ccc([N+](=O)[O-])cc2)C1c1ccc(C)cc1 (stereo not drawn) [FS141] , what is its reported responders at 15 µM?
0

---

Each entry below carries its reported responders at 15 µM.
System: tre^tc318 mutant embryos
Test: Compound rescue screen: restoration of persistent heartbeat in tremblor embryos
Assay type: in vivo, Zebrafish
Conditions: Danio rerio, 48 h, read-out: Rescue at 15 uM (%)
Numbers only; they are read as %.

Known responders at 15 µM results, listed for orientation:
Molecule: CCOC(=O)C1=CCN(S(=O)(=O)c2ccc(F)cc2)C1c1ccc(Br)cc1 (stereo not shown)
Measure: responders at 15 µM
Measurement units: %
Reported: 90
//
Molecule: CCOC(=O)C1=CCN(S(=O)(=O)c2ccc(F)cc2)C1c1ccc(Cl)cc1 (stereo not shown)
Measure: responders at 15 µM
Measurement units: %
Reported: 70
//
Molecule: CCOC(=O)C1=CCN(S(=O)(=O)c2ccccc2)C1c1ccccc1 (stereo not shown)
Measure: responders at 15 µM
Measurement units: %
Reported: 56
//
Molecule: CCOC(=O)C1=CCN(S(=O)(=O)c2ccc(Br)cc2)C1c1ccc(Br)cc1 (stereo not shown)
Measure: responders at 15 µM
Measurement units: %
Reported: 33

Given the molecule CCOC(=O)C1=CCN(S(=O)(=O)c2ccc(Cl)cc2)C1c1ccc(F)cc1 (stereo not shown) , what is its reported responders at 15 µM?
44

Given the molecule CCOC(=O)C1=CCN(S(=O)(=O)c2cccc(F)c2)C1c1ccc(Cl)cc1 (stereo not shown) , what is its reported responders at 15 µM?
78

Given the molecule CCOC(=O)C1=CCN(S(=O)(=O)c2cccc(Cl)c2)C1c1cccc(Br)c1 (stereo not shown) , what is its reported responders at 15 µM?
56

Given the molecule CCOC(=O)C1=CCN(S(=O)(=O)c2cccc(Cl)c2)C1c1cccc(C)c1 (stereo not shown) , what is its reported responders at 15 µM?
33

Given the molecule CCOC(=O)C1=CCN(S(=O)(=O)c2ccccc2C)C1c1ccc(Cl)cc1 (stereo not shown) , what is its reported responders at 15 µM?
60
